Below is a list of entries, each paired with its recorded kcat/Km value.
Target: T1, FisPCP, PCP of the shinorine gene cluster from Fischerella
T1 chain: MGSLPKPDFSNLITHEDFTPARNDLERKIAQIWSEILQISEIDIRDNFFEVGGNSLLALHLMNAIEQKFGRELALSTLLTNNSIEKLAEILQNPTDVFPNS
measured quantity: kcat/Km (M⁻¹ s⁻¹)

SPPT, Sfp-like phosphopantetheinyl transferase (PPTase) from Synechocystis sp. PCC6803 (protein) MLPQPQIWLCPTDRPLIPGYQALLSSEEMARGERYQRPQDKQRFLTMRLALRILLARQLDCLPQQLQFTYGPQGKPELVDRERRSPWFNVAHSGNYGLIGLSTEGEIGVDLQIMLPKPHYLKLAKRFFAPQEVQQLESLEGEKRTKLFYQLWTAKEAFLKATGKGISGGLNQVIPDENLAKYQYLPDSGDTNHWRLSSQPLLADQGSNDNYWMAIAWCTNEVNQVESNYLPNIQPFQWPRNLDSLP: 5000
Sfp, phosphopantetheinyl transferase from Bacillus subtilis (protein) MKIYGIYMDRPLSQEENERFMTFISPEKREKCRRFYHKEDAHRTLLGDVLVRSVISRQYQLDKSDIRFSTQEYGKPCIPDLPDAHFNISHSGRWVIGAFDSQPIGIDIEKTKPISLEIAKRFFSKTEYSDLLAKDKDEQTDYFYHLWSMKESFIKQEGKGLSLPLDSFSVRLHQDGQVSIELPDSHSPCYIKTYEVDPGYKMAVCAAHPDFPEDITMVSYEELL: 1670
MPPT, Sfp-like phosphopantetheinyl transferase (PPTase) from Microcystis aeruginosa NIES843 (protein) MFISTDEVHLYFISLDPSGDRLETLASLLSEDEIIRANRYHFPEHKRRFLVARGCLREILGSYLAISPEKIEFIYSERGKPSINYQLQFNLSHSEEMAICGLTLTARIGVDLEKMRQMKDLDSLTKRFFCAREHELVEKSAEKEKLFFQLWTAKEAYLKAVGTGISGGLDRVEVGLNPLKLDNVAGEWQLWTAAIGDNYRATVVIEGSDRVIKTFGLSDL: 5000
APPT, Sfp-like phosphopantetheinyl transferase (PPTase) from Anabaena sp. PCC7120 (protein) MLQHTWLPKPPNLTLLSDEVHLWRIPLDQPESQLQDLAATLSSDELARANRFYFPEHRRRFTAGRGILRSILGGYLGVEPGQVKFDYESRGKPILGDRFAESGLLFNLSHSQNLALCAVNYTRQIGIDLEYLRPTSDLESLAKRFFLPREYELLRSLPDEQKQKIFFRYWTCKEAYLKATGDGIAKLEEIEIALTPTEPAKLQTAPAWSLLELVPDDNCVAAVAVAGFGWQPKFWHY: 5000
